Cited source: patent US6593480B2

pIC50: −log10 of the molar value.
measurement_label: pIC50

IN: Write down the reported pIC50 of COc1cccc2c1-c1ccc(NS(C)(=O)=O)cc1C(c1cccc(-c3ccc(Cl)c(Cl)c3)c1)O2 (stereo not drawn) [Example 127] , test system: UniProt P06401.
Sequence (P06401 whole entry): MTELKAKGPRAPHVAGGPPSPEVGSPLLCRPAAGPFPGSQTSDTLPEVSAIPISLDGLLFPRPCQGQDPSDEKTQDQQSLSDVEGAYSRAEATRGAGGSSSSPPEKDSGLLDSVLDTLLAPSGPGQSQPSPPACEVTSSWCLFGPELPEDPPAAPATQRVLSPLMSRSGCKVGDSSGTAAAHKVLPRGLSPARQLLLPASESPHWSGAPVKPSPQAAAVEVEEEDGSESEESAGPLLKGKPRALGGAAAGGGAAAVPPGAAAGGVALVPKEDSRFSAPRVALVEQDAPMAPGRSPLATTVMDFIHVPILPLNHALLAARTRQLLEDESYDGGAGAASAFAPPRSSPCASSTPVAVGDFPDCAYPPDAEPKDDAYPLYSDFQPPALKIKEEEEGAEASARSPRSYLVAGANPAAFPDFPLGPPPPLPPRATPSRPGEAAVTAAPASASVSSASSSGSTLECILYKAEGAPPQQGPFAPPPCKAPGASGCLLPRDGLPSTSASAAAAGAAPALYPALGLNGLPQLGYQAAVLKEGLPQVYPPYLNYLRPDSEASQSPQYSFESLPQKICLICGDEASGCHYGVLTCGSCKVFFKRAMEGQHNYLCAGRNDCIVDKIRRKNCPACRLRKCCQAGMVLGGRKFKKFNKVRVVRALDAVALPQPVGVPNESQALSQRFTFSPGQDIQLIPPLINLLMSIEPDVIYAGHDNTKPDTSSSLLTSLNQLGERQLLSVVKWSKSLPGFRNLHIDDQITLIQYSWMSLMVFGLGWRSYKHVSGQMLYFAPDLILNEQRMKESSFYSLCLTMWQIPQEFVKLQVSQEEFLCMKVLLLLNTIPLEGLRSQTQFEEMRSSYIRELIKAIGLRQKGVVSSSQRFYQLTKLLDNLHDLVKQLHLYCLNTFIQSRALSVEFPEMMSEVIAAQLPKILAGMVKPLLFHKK
OUT: < 5.00

IN: Write down the reported pIC50 of COc1cccc2c1-c1ccc(NS(C)(=O)=O)cc1C(c1ccc(Oc3ccc(Br)cc3)cc1)O2 (stereo not drawn) [Example 153] , test system: UniProt P06401.
OUT: < 5.00

IN: Write down the reported pIC50 of COc1cccc2c1-c1ccc(NS(C)(=O)=O)cc1C(c1cccc(-c3ccc(C)cc3)c1)O2 (stereo not drawn) [Example 123] , test system: UniProt P06401.
OUT: < 5.00

====

measured_target: Human glucocorticoid receptors (Homo sapiens)
Construct: made in house; host or cells: Sf9 insect cells, recombinant baculovirus (BAC-TO-BAC)
Sequence (P04150 1-777): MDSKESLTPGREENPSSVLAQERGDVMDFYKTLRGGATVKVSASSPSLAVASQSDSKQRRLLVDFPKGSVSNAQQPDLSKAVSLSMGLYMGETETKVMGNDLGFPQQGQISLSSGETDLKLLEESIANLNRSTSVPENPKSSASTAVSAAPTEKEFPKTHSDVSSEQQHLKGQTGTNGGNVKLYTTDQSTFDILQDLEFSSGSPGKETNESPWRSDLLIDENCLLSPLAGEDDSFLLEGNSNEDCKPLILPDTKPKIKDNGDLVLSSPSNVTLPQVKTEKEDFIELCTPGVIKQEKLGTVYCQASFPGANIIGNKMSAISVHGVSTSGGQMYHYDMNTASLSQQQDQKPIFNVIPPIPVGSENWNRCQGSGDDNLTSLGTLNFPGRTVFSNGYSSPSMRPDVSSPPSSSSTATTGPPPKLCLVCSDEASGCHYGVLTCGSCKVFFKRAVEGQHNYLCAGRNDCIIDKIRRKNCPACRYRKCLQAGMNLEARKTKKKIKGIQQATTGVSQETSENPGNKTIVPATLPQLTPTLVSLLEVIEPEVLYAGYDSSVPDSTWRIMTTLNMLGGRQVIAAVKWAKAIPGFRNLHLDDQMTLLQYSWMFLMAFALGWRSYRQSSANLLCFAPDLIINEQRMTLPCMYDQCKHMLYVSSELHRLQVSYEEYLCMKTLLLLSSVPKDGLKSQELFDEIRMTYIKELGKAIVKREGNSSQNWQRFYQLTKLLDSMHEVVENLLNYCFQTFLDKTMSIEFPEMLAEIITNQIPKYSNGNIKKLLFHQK
method_notes: Radioligand filter binding assay, displacement of 3(H)-dexamethasone from human glucocorticoid receptor cytosol
run_conditions: 1.7 μM test compound; inhibition of 3(H)-dex binding to hGR; read-out: GR BINDING (% Inhibition @ 1.7 μM)
measurement_label: inhibition at 1.7 µM (%)
Reply numerically in %, unit not repeated.

IN: Write down the reported inhibition at 1.7 µM of COc1cccc2c1-c1ccc(NS(C)(=O)=O)cc1[C@H](c1ccccc1)O2 [Example 24] , test system: Human glucocorticoid receptors (Homo sapiens).
OUT: 88.9

IN: Write down the reported inhibition at 1.7 µM of C[Si](C)(C)CCCc1cccc(C2Oc3cccc(OC(F)F)c3-c3ccc(NS(C)(=O)=O)cc32)c1 (centres unmarked) [Example 134] , test system: Human glucocorticoid receptors (Homo sapiens).
OUT: 88.8

IN: Write down the reported inhibition at 1.7 µM of CS(=O)(=O)Nc1ccc2c(c1)C(c1cccc(CCCC(=O)O)c1)Oc1cccc(OC(F)F)c1-2 (centres unmarked) [Example 121] , test system: Human glucocorticoid receptors (Homo sapiens).
OUT: 76.6

IN: Write down the reported inhibition at 1.7 µM of COc1cccc2c1-c1ccc(NS(C)(=O)=O)c(C)c1C(c1cccc(C(F)(F)F)c1)O2 (centres unmarked) [Example 1] , test system: Human glucocorticoid receptors (Homo sapiens).
OUT: 82.1

IN: Write down the reported inhibition at 1.7 µM of CCOC(=O)CCCc1cccc(C2Oc3cccc(OC)c3-c3ccc(NS(C)(=O)=O)cc32)c1 (centres unmarked) [Example 150] , test system: Human glucocorticoid receptors (Homo sapiens).
OUT: 90.8
